system: Hs-578T; assay: NCI tumour cell line growth inhibition, 48 h
Calls of active or inactive are those of the source. No stated cut-off is given here; in the data, active = GI50 up to about 1.1 µM and inactive = higher.
Please answer using one outcome listed in 1 for active, 0 for inactive

INSERT INTO assay_data (compound, class) VALUES
  ('CC1(O)/C(=N/O)CC2CC1C2(C)C (stereo not drawn)', 0),
  ('CCOC(=O)CCCn1nnc(C(=O)OCC)c1C(=O)OCC', 0),
  ('N#Cc1nc(Cc2cccs2)oc1N', 0),
  ('COC(=O)/C=C/c1ccc2c(c1)CC1(C2)Cc2cc3c(cc2C1=O)CCC3 (stereo not drawn)', 0),
  ('Cn1ccc2c(c1=O)C(=O)OC2(C)C [CERPEGIN]', 0),
  ('COC(=O)c1c2c(cc3c1CC1(Cc4cc5c(cc4C1)CCC5)C3)CCC2', 0),
  ('CCN1CCN=c2c3cc(OC)ccc3n3cnc4ccc1c2c43', 1),
  ('O=[N+]([O-])C1=Cc2c(O)ccc(O)c2C2c3ccccc3NC12 (stereo not drawn)', 0),
  ('Cc1c2cccc-2c(N(C)C)cc2c1[nH]c1ccccc12', 0),
  ('N#Cc1ccc(/C=N/NC(=O)CSCC(=O)N/N=C/c2ccc(C#N)cc2)cc1', 0);

Data request: Dear all, I need the recorded test outcome for Cc1cc(O)c2c(c1O)C(=O)c1cccc(O)c1C2=O [ISLANDICIN] , thank you.
Data returned: 0

Data request: Assay result, entry CN(C)c1ccc(C2ON=C(c3ccccc3)N2C23CC4CC(CC(C4)C2)C3)cc1 (stereo not drawn) — outcome?
Data returned: 0

Data request: Could you check what this test reported for `O=C(Cc1ccccc1F)NC1=C(Cl)C(=O)c2ccccc2C1=O` ?
Data returned: 1

Data request: For this compound, state the assay outcome: `COC1(OC)c2no[n+]([O-])c2C(OC)(OC)c2c1no[n+]2[O-]`
Data returned: 0

Data request: Per the assay record, what outcome was assigned to Cc1ccc(/C=C2\CCCC(CN3CCCCC3)C2=O)cc1 (stereo not drawn) ?
Data returned: 0

Data request: Any idea what this test logged for `O=C1CCSc2c(cnc3ccccc23)N1` ?
Data returned: 0

Data request: Assay outcome for Cc1ccc(NC(=O)CC(=O)N2N=C(N(C)c3ccccc3)CC2c2ccccc2)cc1 (stereo not drawn) : what was it?
Data returned: 0

Data request: Test call for this compound, please: `CCOC(=O)c1nc2ccccc2nc1NCc1ccc(OC)c(OC)c1`
Data returned: 0

Data request: Recorded test call requested for `C[C@]12CC[C@H]3[C@@H](CCC4=CC(=O)CC[C@@]43C)[C@]1(O)CC[C@]2(O)C(=O)CO`
Data returned: 0

Data request: Field: outcome | Entry: N#CC1=C(N)C(C#N)(C#N)C(c2ccc(F)cc2)C=C1C1CC1 (stereo not drawn)
Data returned: 0

* * *

Measured GI50 of individual entries
system: NCI-H226; experiment: NCI tumour cell line growth inhibition, 48 h
Activity calls are given as the source filed them. Cut-off read from the data, not from the text of the source: active = GI50 up to about 1.1 µM and inactive = higher.

For orientation, consider the following solved cases.
INSERT INTO results (compound, parameter_measured, experimental_result) VALUES
  ('CCOC(=O)c1c(-c2ccccc2)c(OC)cn1C', 'GI50', '> 10 µM (inactive)'),
  ('COc1cc2ccc(=O)oc2cc1O', 'GI50', '86.3 µM (inactive)'),
  ('CCOC(=O)c1cc(Br)c(-c2cc(C)co2)[nH]1', 'GI50', '> 100 µM (inactive)');

Data request: I would be grateful if you could share the reported GI50 for `O=C(COc1ccc(OCC(=O)N2C(=O)CN(c3ccccc3)C2=S)cc1)N1C(=O)CN(c2ccccc2)C1=S` .
Data returned: > 100 µM (inactive)

Data request: Fill in: GI50 of `CCOC(=O)N1CCN(Cc2cc(=O)n3ccc(C)cc3n2)CC1` is ___
Data returned: > 100 µM (inactive)

Data request: # lookup: GI50 of `Cc1ccc(/C=N/Nc2nncc3ccccc23)s1`
Data returned: > 69.2 µM (inactive)

Data request: Which GI50 reading was recorded for the compound CC1CN=C(Nc2cccc(C(F)(F)F)c2)S1 (stereo unspecified) ?
Data returned: 79.3 µM (inactive)

Data request: I would be grateful if you could share the reported GI50 for CC(C)(O)C1COC2=C1C(=O)c1ccccc1C2=O (stereo unspecified) .
Data returned: 32.5 µM (inactive)

Data request: Report GI50 for CC(=O)O[C@H]1CCC2[C@@H]3CC[C@]4(C)CC(=O)C=C[C@]4(C)C3CC[C@@]21C (stereo partly specified) please.
Data returned: 25.2 µM (inactive)

Data request: Can you share its GI50? I mean this compound: `O=c1ncccn1[C@@H]1O[C@H](CO)[C@@H](O)[C@@H]1F`
Data returned: > 100 µM (inactive)

Data request: Returns the measured GI50 for the input compound. Input: `Cn1c(-c2cccs2)cc(-c2cccs2)c1-c1ccsc1`
Data returned: > 100 µM (inactive)

* * *

Let's look at some compounds and their measured GI50.
test system: ACHN; assay: NCI tumour cell line growth inhibition, 48 h
Active and inactive are the calls of the source. Rule as the data show it: active = GI50 up to about 1.1 µM and inactive = higher.

Guide cases for GI50, answers given:
INSERT INTO measurements (compound, experimental_result) VALUES
  ('CC(=O)ON(C(C)=O)C1C(COC(c2ccccc2)(c2ccccc2)c2ccccc2)OC2OC3(CCCC3)OC21 (stereo unspecified)', '7.66 µM (inactive)'),
  ('N#Cc1sc2nc3ccccc3n2c1N', '92.3 µM (inactive)'),
  ('COc1cc2c(/C=C3/C(=O)Nc4ccc(Cl)cc43)c(Cl)[nH]c2cc1C', '0.587 µM (active)'),
  ('S=C1OC2CCCC[C@H]2O1 (stereo partly specified)', '> 100 µM (inactive)');

Data request: Reported GI50 for ACHN, given O=C(c1ccccc1)N1CCC(Nc2cccnc2)O1 (stereo unspecified) ?
Data returned: > 100 µM (inactive)

Data request: Find the measured GI50: item `CCOP(=O)(OCC)/C(C#N)=C/c1ccc[nH]1` , target or system ACHN.
Data returned: > 100 µM (inactive)

Data request: Requested read-out GI50, target or system ACHN, entry CCN1CCCC(Nc2cc(C)nc(NC(=N)Nc3ccc(Cl)c(Cl)c3)n2)C1 (stereo unspecified)
Data returned: 2.32 µM (inactive)

Data request: Enter reported GI50 observed with ACHN for CC1(O)/C(=N/O)CC2CC1C2(C)C (stereo unspecified)
Data returned: > 100 µM (inactive)

Data request: What reported GI50 corresponds to COc1ccc(C(OCC2OC(n3ccc(NC(=O)c4ccccc4)nc3=O)C(O)C2O)(c2ccccc2)c2ccccc2)cc1 (stereo unspecified) on ACHN?
Data returned: 2.9 µM (inactive)

Data request: Report GI50 for CC(C)(C)OC(=O)NCCCCC(NC(=O)c1ccccc1)C(N)=O (stereo unspecified) tested on ACHN.
Data returned: > 100 µM (inactive)

* * *

tested on: NCI-H226; assay: NCI tumour cell line growth inhibition, 48 h
Activity calls are given as the source filed them. Cut-off read from the data, not from the text of the source: active = GI50 up to about 1.1 µM and inactive = higher.
# Lookup of reported GI50 keyed by entry

Past entries and their recorded results:
INSERT INTO assay_data (compound, experimental_result) VALUES
  ('NCCN1C(=O)C2C3c4ccccc4C(c4ccccc43)C2C1=O (stereo unspecified)', '> 100 µM (inactive)'),
  ('Cc1cccc(-n2c(C)nc3ccc(NC4OC(CO)C(O)C(O)C4O)cc3c2=O)c1 (stereo unspecified)', '> 100 µM (inactive)'),
  ('CCCN(CCC)C(=O)Cc1c2n(c3ccccc13)CCCc1ccccc1-2', '15.1 µM (inactive)');

Data request: Fill in the blank: the reported GI50 of `C(=C\c1cc(CCc2nc3ccccc3[nH]2)n[nH]1)/c1ccccc1` is ____.
Data returned: > 100 µM (inactive)

* * *

test system: M19-MEL; assay: NCI tumour cell line growth inhibition, 48 h
The source made the active and inactive calls. No stated cut-off is given here; in the data, active = GI50 up to about 1.1 µM and inactive = higher.
List of GI50 values.

INSERT INTO assay_data (compound, parameter_measured, experimental_result) VALUES
  ('COc1cc(=O)oc(/C=C/CO)c1C', 'GI50', '> 100 µM (inactive)'),
  ('CSc1ncnc2c1CCN2', 'GI50', '> 100 µM (inactive)'),
  ('O=C1CCC2CCc3cccc4oc1c2c34 (configuration not stated)', 'GI50', '> 100 µM (inactive)'),
  ('CCOC(OC(C)=O)[C@@H]1C=C[C@H](C)N(c2ccc([N+](=O)[O-])cc2)O1 (some centres not stated)', 'GI50', '2.14 µM (inactive)'),
  ('C=C1C(=O)OC2CC(C)C3C=CC(=O)C3CC12 (configuration not stated)', 'GI50', '2.72 µM (inactive)');

Data request: What measured GI50 is associated with `O=C(Nc1ccc(Cl)cc1)c1cccc([N+](=O)[O-])c1O` on M19-MEL?
Data returned: 2.8 µM (inactive)

Data request: M19-MEL / GI50 / `C1=Cc2nc1c(-c1ccncc1)c1ccc([n-]1)c(-c1ccncc1)c1nc(c(-c3ccncc3)c3ccc([n-]3)c2-c2ccncc2)C=C1.[Zn+2]` : value?
Data returned: > 100 µM (inactive)

Data request: Record lookup: for M19-MEL, what GI50 belongs to CSC1CC2C(CC1(C)SC)C2(C)C (configuration not stated) ?
Data returned: 37.2 µM (inactive)

Data request: Record `Nc1nc(-c2ccco2)cc(-c2ccc(CO)o2)n1` : what is its GI50 with M19-MEL?
Data returned: > 100 µM (inactive)

Data request: // map `O=C(CCc1n[nH]c(=S)o1)Nc1cc(Cl)c(Cl)cc1Cl` to recorded GI50 (system: M19-MEL)
Data returned: > 100 µM (inactive)

Data request: Query the reported GI50 for M19-MEL; item: CC1CC2(S(=O)(=O)c3ccccc3)ON1CC2S(=O)(=O)c1ccccc1 (configuration not stated)
Data returned: > 100 µM (inactive)

Data request: Recall the recorded GI50 for NCCN1C(=O)C2C3c4ccccc4C(c4ccccc43)C2C1=O (configuration not stated) with M19-MEL and state it.
Data returned: > 100 µM (inactive)

Data request: Record `CCOC(=O)C(Cc1cn(S(=O)(=O)c2ccccc2)c2ccccc12)(NC(C)=O)C(=O)OCC` : what is its GI50 with M19-MEL?
Data returned: 40.7 µM (inactive)

Data request: What is its GI50 for M19-MEL? Entry: CC(C)(C)[Si](OC1CC(n2cnc3c(N)ncnc32)OC1CO)(c1ccccc1)c1ccccc1 (configuration not stated)
Data returned: 19.7 µM (inactive)

Data request: Notebook: pull reported GI50 for M19-MEL, entry CC1=C2C(=CO[C@H](C)[C@H]2C)C(O)=C(C(=O)O)C1=O [CITRININ]
Data returned: 24.5 µM (inactive)

Data request: What measured GI50 is associated with Cc1ccc(S(=O)(=O)OCC23CCC(C4CC42)C2CC23)cc1 (configuration not stated) on M19-MEL?
Data returned: 60.7 µM (inactive)

Data request: Identify the measured GI50 of `CCOc1ccc([Se][Se]c2ccc(OCC)cc2)cc1` for M19-MEL.
Data returned: 25.6 µM (inactive)

Data request: Value wanted: GI50 (M19-MEL) of entry `O=C1C=C(Nc2ccccc2C(=O)CC(=O)C(=O)Nc2ccc(Cl)cc2)c2ccccc2C1=O`
Data returned: 1.95 µM (inactive)

Data request: Which GI50 is reported with M19-MEL for this entry: `CC(=O)Nc1ccc(/C=c2\sc3nnc(CCC(=O)Nc4ccccc4Cl)n3c2=O)cc1` ?
Data returned: 37.4 µM (inactive)

Data request: Missing value: GI50, M19-MEL, entry `CCOC(=O)CNC(=O)c1nc[nH]c1/N=N/N(C)C` . Fill in?
Data returned: > 100 µM (inactive)

Data request: Please tell me: GI50 of Cc1ccc(SC2C(C)(C)N(C(C)C)P2(=O)N(C(C)C)C(C)C)cc1 (configuration not stated) , system M19-MEL?
Data returned: 26.7 µM (inactive)

Data request: Find the measured GI50: item `S=c1sc2c(Cl)ncnc2n1-c1ccccc1` , target or system M19-MEL.
Data returned: 3.8 µM (inactive)
